assay: NCI Yeast Anticancer Drug Screen. Data for the sgs1 mgt1 strain (AID 161); settings: S. cerevisiae sgs1 mgt1 strain, at 5.0 µM (retest, dose inferred, filed as 0.5), stronger effect = higher value
The panel holds about 79,000 compounds, 15% with a hit somewhere; the sample as a whole holds those more often.
Give True when the value for growth inhibition is at least 10%. Give False when it is less.

> print(dat)
                                    compound    cat
 1       CCN(CC)C(=S)n1c(=S)nc(N(CC)CC)sc1=S   True
 2            CCOC(=O)C(=Cc1cccnc1C)C(=O)OCC   True
 3  CC12CCC(c3sc(N)c(C#N)c31)C2(C)C (stereo not given)  False
 4          Nc1ccc(SC23CC4CC(CC(C4)C2)C3)cc1  False
 5  CCC1CCC2=C(C1)C(=O)c1ccccc1C2=O (stereo not given)   True
 6  COc1ccc2c(c1)CC[C@@H]1C2CC[C@]2(C)OC(=O)CCC12 (stereo not given in full)  False
 7        CCCCN(C)N=Nc1c(C(N)=O)n[nH]c1C(C)C  False
 8  Cc1ccc(S(=O)(=O)S/C(=N\c2ccccn2)Nc2ccccn2)cc1   True
 9  Cc1ccc(S(=O)(=O)NCCCOS(=O)(=O)c2ccc(C)cc2)cc1   True
10  COC1=CC2=CCC3C(CCC4(C)C(C(C)=O)CCC34)C2(C)CC1 (stereo not given)  False
11  OCCN(CCO)c1cc(/C=C/c2ccnc3ccccc23)nc2ccccc12   True
12              CC1CCN(CCCOC(=O)c2ccccc2)CC1   True
13                         CSC(=S)NN=C1CCCC1   True
14          ClC1(c2ccccc2)c2ccccc2-c2ccccc21  False
15   Nc1ccc2c(S(=O)(=O)O)cc(S(=O)(=O)O)cc2c1  False
16  CNC(=O)c1cc(NC(=O)c2ccc(C(=O)Nc3cc(C(=O)NC)cc(C4=NCCN4)c3)cc2)cc(C2=NCCN2)c1  False
17  COc1cc(C2C(Cl)C(=O)N2NC(=O)c2ccccc2O)cc(OC)c1OC (stereo not given)  False
18           Cc1cccc(C)c1NC(=O)CCc1nnc(N)n1N  False
19  CC(C)C1=CC[C@H]2C(=C1)CC[C@@H]1[C@]2(C)CCC[C@@]1(C)C(=O)O  False
20  CCN(CC)CCNC(=O)c1ccc2c(c1O)C(=O)c1ccccc1C2=O  False
21  COc1cccc2c1C(=O)c1c(O)c3c(c(O)c1C2=O)CC(O)(C(C)=O)CC3OC1CC(NCC2(O)OCC(O)C(O)C2O)C(O)C(C)O1 (stereo not given)   True
22  CN1C(=O)OC(C)(c2ccccc2)C1=O (stereo not given)  False
23  CC1(C)CCN(CCOC(=O)C(c2ccccc2)C2C=CCCC2)C1 (stereo not given)   True
24  CC1(C)CNCC(C)(OCc2ccccc2)C(=O)NC(C)(C)CNCC(C)(OCc2ccccc2)C(=O)N1 (stereo not given)  False
25  NC(=O)C1CCCN1C(=O)C1CCCN(Cc2cc(CN3CCCC(C(=O)N4CCCC4C(N)=O)C3)cc(CN3CCCC(C(=O)N4CCCC4C(N)=O)C3)c2)C1 (stereo not given)  False
26                CCOc1ccc(N=NS(=O)(=O)O)cc1  False
27           CCCCCCSC(=Cc1cccc[n+]1C)SCCCCCC   True
28               O=C(O)C/C(=C\c1ccco1)C(=O)O  False
29        O=C1C=CC(=O)N1C12CC3CC(CC(C3)C1)C2   True
30  Cc1ccc2c(c1)NC(=O)C(N=[N+]=[N-])(c1ccccc1)C2=O (stereo not given)  False
31       O=C(c1ccccc1)N1CCN(c2cccc(Cl)c2)CC1  False
32  COC(=O)/C(=N\NC(=O)c1ccccc1O)C(C#N)c1ccc(Cl)cc1 (stereo not given)   True
33  CC(C)C12CCC3(CCC4C(C)(C(=O)O)CCCC4(C)C3C1)C(CN)C2 (stereo not given)   True
34  COc1ccc2c(Cc3ccccc3)c3[n+](cc2c1OC)CCc1cc2c(cc1-3)OCO2  False
35  CC(Cl)C(=O)Nc1cc2ccccc2oc1=O (stereo not given)  False
36  CC(NC(=O)C(Cc1ccccc1)NC(=O)c1ccc[n+](Cc2ccccc2)c1)C(N)=O (stereo not given)  False
37  CC(C)c1ccc2c(c1)CCC1C(C)(CNC(=O)S)CCCC21C.[Zn+2] (stereo not given)  False
38  O=C1CN(Cc2ccc(Cl)cc2)CC(=O)N2Cc3ccccc3CN12  False
39  C=CCOC(=O)CC(OC(C)=O)C(CC)CC(C)C (stereo not given)  False
40  Clc1ccc2c(NC3CCC(N4CCCCC4)CC3)ccnc2c1 (stereo not given)   True
41        NCCc1ccc2oc3cc(=O)c4ccccc4c-3nc2c1  False
42  COc1ccc(-c2cc(C(=O)O)c3cccc(C(F)(F)F)c3n2)cc1  False
43  O=C(O)C1CC[N-]CC1.O=C(O)C1CC[N-]CC1.[Cl][Pt+2]([Cl])([Cl])[Cl]   True
44  O=C(Oc1c(Cl)cc(Cl)c(Cl)c1Cl)Oc1c(Cl)cc(Cl)c(Cl)c1Cl  False
